Cited source for all entries: patent US20210145976A1

target: human serum albumin (human) (UniProt P02768); assay: screening ELISA
Sequence (P02768 25-609 limits assumed): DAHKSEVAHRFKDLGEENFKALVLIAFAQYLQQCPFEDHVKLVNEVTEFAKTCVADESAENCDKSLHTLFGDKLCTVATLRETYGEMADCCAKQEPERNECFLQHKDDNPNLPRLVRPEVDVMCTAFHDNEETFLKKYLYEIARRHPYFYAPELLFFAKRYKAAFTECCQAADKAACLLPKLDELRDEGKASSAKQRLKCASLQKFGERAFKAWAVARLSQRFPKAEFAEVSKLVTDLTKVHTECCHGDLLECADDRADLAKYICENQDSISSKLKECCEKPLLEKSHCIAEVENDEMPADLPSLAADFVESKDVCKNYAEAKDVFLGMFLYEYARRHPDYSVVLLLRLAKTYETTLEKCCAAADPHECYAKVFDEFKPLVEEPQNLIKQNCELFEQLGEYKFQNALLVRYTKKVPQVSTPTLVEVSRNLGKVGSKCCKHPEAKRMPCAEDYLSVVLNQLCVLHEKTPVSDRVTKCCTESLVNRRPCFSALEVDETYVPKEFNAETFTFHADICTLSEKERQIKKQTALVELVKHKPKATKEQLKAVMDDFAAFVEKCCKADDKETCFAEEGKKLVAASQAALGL
METRIC: HSA

[I] SEQ ID NO 231 (designed binder) MLPAPKNLVVSRVTEDSARLSWTAPDAAFDSFEIPYIETVALGEAIVLTVPGSERSYDLTGLKPGTEYYVEIYGVKGGSYSYPLSAISTT
[II] SEQ ID NO 219 (designed binder) MLPAPKNLVVSRVTEDSARLSWTAPDAAFDSFHIDYLELTYAGEAIVLTVPGSERSYDLTGLKPGTEYYVTIYGVKGGYPSSPLSAIFTT
Decide: I or II , by lowest recorded HSA. Kindly give the label for the entry you pick.
II
(II: 2600, I: 26500)
